- Tested on: SN12C
- protocolText: Growth inhibitory concentration required for against human renal SN12C cancer cell line
- Type: functional
# key: entry, value: GI50
Use µM as the unit, but write only the number.

Example compounds with recorded GI50:
| smilesRepresentation | reportedValue |
| --- | --- |
| C[C@]12CC[C@@H]3c4cc(CO)c(O)cc4CC[C@H]3[C@@H]1CC[C@@H]2O | 63.1 |
| C[C@]12CC[C@@H]3c4cc(/C=N/C5CC5)c(O)cc4CC[C@H]3[C@@H]1CC[C@@H]2O | 70.8 |
| CCC(=O)c1cc2c(cc1O)CC[C@@H]1[C@@H]2CC[C@]2(C)[C@@H](O)CC[C@@H]12 | 13.8 |

--- query ---
For `CC(=O)c1cc2c(cc1O)CC[C@@H]1[C@@H]2CC[C@]2(C)[C@@H](O)CC[C@@H]12` the compound record lists GI50 as 53.7

====

- targetSystem: Tubulin (Bos taurus, UniProt Q6B856+Q862L2+Q862F3)
- protocolText: Inhibitory concentration against bovine tubulin polymerization
- Type: functional
measuredProperty: IC50

Example compounds with recorded IC50:
| smilesRepresentation | IC50 |
| --- | --- |
| C[C@]12CC[C@@H]3c4cc(/C=N/C5CC5)c(O)cc4CC[C@H]3[C@@H]1CC[C@@H]2O | > 40 µM |
| C[C@]1(O)CC[C@H]2[C@@H]3CCc4cc(O)ccc4[C@H]3CC[C@@]21C | 5.6 µM |

Form field IC50 for item `CC(=O)Oc1cc2c(cc1C(C)(F)F)[C@H]1CC[C@]3(C)[C@@H](OC(C)=O)CC[C@H]3[C@@H]1CC2` on Tubulin (Bos taurus, UniProt Q6B856+Q862L2+Q862F3): > 40 µM

====

- targetSystem: Tubulin (Bos taurus, UniProt Q6B856+Q862L2+Q862F3)
- protocolText: Inhibitory concentration against bovine tubulin polymerization
- Type: functional
# key: entry, value: IC50

| compound | targetSystem | measuredProperty | reportedValue |
| --- | --- | --- | --- |
| C[C@]12CC[C@@H]3c4cc(CO)c(O)cc4CC[C@H]3[C@@H]1CC[C@@H]2O | Tubulin (Bos taurus, UniProt Q6B856+Q862L2+Q862F3) | IC50 | > 40 µM |
| C/C(COc1cc2c(cc1O)CC[C@@H]1[C@@H]2CC[C@]2(C)[C@@H](O)CC[C@@H]12)=N/O | Tubulin (Bos taurus, UniProt Q6B856+Q862L2+Q862F3) | IC50 | > 40 µM |
| COc1cc2c(cc1O)CCC1[C@@H]2CC[C@@]2(C)[C@H]1CCC2(F)F (single isomer, unassigned) | Tubulin (Bos taurus, UniProt Q6B856+Q862L2+Q862F3) | IC50 | > 40 µM |
| C=C1CC[C@H]2[C@@H]3CCc4cc(O)c(OCC)cc4[C@H]3CC[C@]12C | Tubulin (Bos taurus, UniProt Q6B856+Q862L2+Q862F3) | IC50 | 2.9 µM |
| COCc1cc2c(cc1O)CC[C@@H]1[C@@H]2CC[C@]2(C)[C@@H](O)CC[C@@H]12 | Tubulin (Bos taurus, UniProt Q6B856+Q862L2+Q862F3) | IC50 | > 40 µM |

--- query ---
For `CCC(=O)c1cc2c(cc1O)CC[C@@H]1[C@@H]2CC[C@]2(C)[C@@H](O)CC[C@@H]12` the compound record lists IC50 as > 40 µM

====

# key: entry, value: GI50
- Test system: SN12C
- protocolText: Growth inhibitory concentration required for against human renal SN12C cancer cell line
- Assay type: functional
Use µM as the unit, but write only the number.

| smilesRepresentation | targetSystem | GI50 (µM) |
| --- | --- | --- |
| CCOc1cc2c(cc1O)CC[C@@H]1[C@@H]2CC[C@@]2(C)[C@H]1CC[C@]2(C)O | SN12C | 4.5 |
| COCc1cc2c(cc1O)CC[C@@H]1[C@@H]2CC[C@]2(C)[C@@H](O)CC[C@@H]12 | SN12C | 56.2 |
| C[C@]1(O)CC[C@H]2[C@@H]3CCc4cc(O)ccc4[C@H]3CC[C@@]21C | SN12C | 10.2 |
| COc1cc2c(cc1O)CC[C@@H]1[C@@H]2CC[C@@]2(C)[C@H]1CC[C@]2(C)[C@H](O)c1ccccc1 | SN12C | 14.1 |
| C=CCc1cc2c(cc1O)CC[C@@H]1[C@@H]2CC[C@]2(C)[C@@H](O)CC[C@@H]12 | SN12C | 18.2 |
| C=C1CC[C@H]2[C@@H]3CCc4cc(O)c(OCC)cc4[C@H]3CC[C@]12C | SN12C | 0.19 |

For `COc1cc2c(cc1O)CC[C@@H]1[C@@H]2CC[C@@]2(C)[C@H]1CC[C@@]2(O)C(F)(F)F` the molecule record lists GI50 as 24.5

For `COc1cc2c(cc1O)CC[C@@H]1[C@@H]2CC[C@@]2(C)[C@H]1CC[C@]2(C)O` the molecule record lists GI50 as 7.8

====

- Test system: SN12C
- protocolText: Growth inhibitory concentration required for against human renal SN12C cancer cell line
- Type: functional
measuredProperty: GI50 (µM)
Use µM as the unit, but write only the number.

Example compounds with recorded GI50:
| compound | targetSystem | GI50, µM |
| --- | --- | --- |
| CC(=O)Oc1cc2c(cc1C(C)(F)F)[C@H]1CC[C@]3(C)[C@@H](OC(C)=O)CC[C@H]3[C@@H]1CC2 | SN12C | 27.5 |
| CC#Cc1cc2c(cc1O)CC[C@@H]1[C@@H]2CC[C@@]2(C)[C@H]1CC[C@]2(C)O | SN12C | 7.4 |
| CN(C)CCC/N=C/c1cc2c(cc1O)CC[C@@H]1[C@@H]2CC[C@]2(C)[C@@H](O)CC[C@@H]12 | SN12C | 25.7 |
| C/C(COc1cc2c(cc1O)CC[C@@H]1[C@@H]2CC[C@]2(C)[C@@H](O)CC[C@@H]12)=N/O | SN12C | 27.5 |
| C[C@]12CC[C@@H]3c4cc(C(F)(F)C(F)(F)F)c(O)cc4CC[C@H]3[C@@H]1CC[C@@H]2O | SN12C | 16.6 |
| C[C@]12CC[C@@H]3c4ccc(O)cc4CCC3[C@@H]1CCC2(F)F (single isomer, unassigned) | SN12C | 18.6 |

For COc1cc2c(cc1O)CCC1[C@@H]2CC[C@@]2(C)[C@H]1CCC2(F)F (single isomer, unassigned) the compound record lists GI50 as 24.5

====

- targetSystem: Tubulin beta chain (Bos taurus)
- Sequence (Q6B856 whole entry): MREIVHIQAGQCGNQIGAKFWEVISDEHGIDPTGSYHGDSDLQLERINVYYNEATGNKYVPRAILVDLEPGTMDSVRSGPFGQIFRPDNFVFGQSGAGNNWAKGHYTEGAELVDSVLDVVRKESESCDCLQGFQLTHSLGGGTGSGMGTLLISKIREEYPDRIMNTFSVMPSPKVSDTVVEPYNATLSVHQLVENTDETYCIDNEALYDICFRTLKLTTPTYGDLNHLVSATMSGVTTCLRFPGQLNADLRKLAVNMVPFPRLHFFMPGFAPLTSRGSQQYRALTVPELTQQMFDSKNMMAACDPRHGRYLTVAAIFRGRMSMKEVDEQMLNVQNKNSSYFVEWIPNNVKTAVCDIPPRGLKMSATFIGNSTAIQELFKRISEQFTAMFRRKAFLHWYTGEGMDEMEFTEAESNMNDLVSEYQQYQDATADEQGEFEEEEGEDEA
- protocolText: Inhibitory concentration against bovine brain tubulin polymerization
measuredProperty: pIC50
Answer as the number alone; pIC50 is minus log10 of concentration in mol/L.

For `COc1cc2c(cc1O)CC[C@@H]1[C@@H]2CC[C@]2(C)[C@@H](O)CC[C@@H]12` the compound record lists pIC50 as 5.28

====

- Tested on: HUVEC
- protocolText: Inhibitory concentration required against growth of HUVEC […] cell line
- Assay type: functional, cell-based
- studyConditions: Homo sapiens
# if measured IC50 < 6 µM: True  # else: False

| compound | groupLabel |
| --- | --- |
| COc1cc2c(cc1O)CC[C@@H]1[C@@H]2CC[C@@]2(C)[C@H]1CC[C@@]2(O)C(F)(F)F | False |

Q: Confirm or reject: IC50 of `CC(=O)Oc1cc2c(cc1C(C)(F)F)[C@H]1CC[C@]3(C)[C@@H](OC(C)=O)CC[C@H]3[C@@H]1CC2` lies strictly below 6 µM
Ans: False

Q: Confirm or reject: IC50 of `CCOc1cc2c(cc1O)CC[C@@H]1[C@@H]2CC[C@@]2(C)[C@H]1CC[C@]2(C)O` lies strictly below 6 µM
Ans: True

====

# key: entry, value: GI50
- Tested on: DU-145
- protocolText: Growth inhibitory concentration required against human prostate DU-145 cancer cell line
- Assay type: functional
Use µM as the unit, but write only the number.

Example molecules with recorded GI50:
| molecule | GI50, µM |
| --- | --- |
| C=C1CC[C@H]2[C@@H]3CCc4cc(O)c(OCC)cc4[C@H]3CC[C@]12C | 0.47 |
| C[C@]1(O)CC[C@H]2[C@@H]3CCc4cc(O)ccc4[C@H]3CC[C@@]21C | 2 |
| C[C@]12CC[C@@H]3c4ccc(O)cc4CCC3[C@@H]1CCC2(F)F (single isomer, unassigned) | 16.6 |

Form field GI50 for item `CC(=O)Oc1cc2c(cc1C(C)(F)F)[C@H]1CC[C@]3(C)[C@@H](OC(C)=O)CC[C@H]3[C@@H]1CC2` on DU-145: 13.8

Form field GI50 for item `C[C@]12CC[C@@H]3c4cc(/C=N/C5CC5)c(O)cc4CC[C@H]3[C@@H]1CC[C@@H]2O` on DU-145: 16.6

Form field GI50 for item `CCOc1cc2c(cc1O)CC[C@@H]1[C@@H]2CC[C@@]2(C)[C@H]1CC[C@]2(C)O` on DU-145: 5.2

Form field GI50 for item `COCc1cc2c(cc1O)CC[C@@H]1[C@@H]2CC[C@]2(C)[C@@H](O)CC[C@@H]12` on DU-145: 64.6
